The reported measurements were obtained from ChEMBL document CHEMBL3124908.

# System: A549
# EXPERIMENT: Cytotoxicity against human A549 cells after 5 days by trypan blue exclusion assay
# Assay type: functional, cell-based
# MEASUREMENT SETUP: A549, 120 h
// values below are reported log10(IC50)
# log10 transformed; quantity=IC50; unit=nM

Some entries whose results are on file:
{"columns": ["MOLECULE", "log10(IC50)"],
 "data": [
  ["CCC(C)n1ccnc1/C=C/C(=O)/C=C/c1nccn1C(C)CC (stereo not given)", 2.00],
  ["O=C(/C=C/c1ccccn1)/C=C/c1ccccn1", 1.71]
]}

Ask: Returns the measured log10(IC50) for the input molecule. Input: COc1cc(/C=C/C(=O)CC(=O)/C=C/c2ccc(O)c(OC)c2)ccc1O [CURCUMIN]
Reply: 4.18

Ask: Returns the measured log10(IC50) for the input molecule. Input: Cc1cc(/C=C/C(=O)/C=C/c2cc(C)no2)on1
Reply: 2.20

Ask: Returns the measured log10(IC50) for the input molecule. Input: CC(C)Cn1ccnc1/C=C/C(=O)/C=C/c1nccn1CC(C)C
Reply: 2.04
